# Assay type: physicochemical
# ASSAY SETUP: HPLC on reversed phase columns, method [a]: pH 2.7, 0.1% formic acid in water / acetonitrile, linear gradient 10% to 95% acetonitrile
MEASUREMENT TYPE: log P

Could I get log P for every one of these entries?
1. C#Cc1cnc2ccc(C3=NOC(C)(C(=O)NCc4cnccc4OC)C3)cc2c1 (centres unmarked)
2. Cc1cc(C2=NOC(C)(C(=O)NC3CCC3)C2)cc2cc(Br)cnc12 (centres unmarked)
3. CC1(C(=O)NCCCOCC(F)(F)F)CC(c2ccc3ncc(Br)cc3c2)=NO1 (centres unmarked)
4. C#Cc1cnc2ccc(C3=NOC(C)(C(=O)NCC)C3)cc2c1 (centres unmarked)
5. C#CCONC(=O)C1(C)CC(c2ccc3ncc(Br)cc3c2)=NO1 (centres unmarked)

1. 1.27[a]
2. 3.71[a]
3. 3.11[a]
4. 2.12[a]
5. 2.22[a]

====

# Test system: Uromyces appendiculatus
# ASSAY PROCEDURE: In vivo preventive test on Uromyces appendiculatus (bean rust)
# ASSAY SETUP: 500 ppm; bean plants sprayed 24 hours before contamination; grading 10 days after contamination vs control plants
MEASUREMENT TYPE: % of efficacy (protection) (%)
One number for each entry, in %.

Using known records, supply % of efficacy (protection) for COCC(COC)NC(=O)C1(C)CC(c2ccc3ncc(Br)cc3c2)=NO1 (centres unmarked)
80

Using known records, supply % of efficacy (protection) for C#Cc1cnc2ccc(C3=NOC(CC)(C(=O)NCc4cn(CC)nc4C)C3)cc2c1 (racemic)
97

Using known records, supply % of efficacy (protection) for C#CCONC(=O)C1(C)CC(c2ccc3ncc(Br)cc3c2)=NO1 (centres unmarked)
100

Using known records, supply % of efficacy (protection) for CCn1cc(CNC(=O)C2(C)CC(c3ccc4ncc(-c5ccccc5)cc4c3)=NO2)c(C)n1 (centres unmarked)
96

Using known records, supply % of efficacy (protection) for CCn1cc(CNC(=O)C2(C)CC(c3ccc4ncc(C(F)(F)F)cc4c3)=NO2)c(C)n1 (racemic)
99

Using known records, supply % of efficacy (protection) for CC(C)NC(=O)C1(C)CC(c2ccc3ncc(C(F)(F)F)cc3c2)=NO1 (racemic)
79

Could I get % of efficacy (protection) for every one of these entries?
1. COC1(C(=O)NC2CCC2)CC(c2ccc3ncc(Br)cc3c2)=NO1 (centres unmarked)
2. COC1(C(=O)NC2CCC2)CC(c2ccc3ncc(I)cc3c2)=NO1 (centres unmarked)
3. C#Cc1cnc2ccc(C3=NOC(CC)(C(=O)NCC4COC(C)(C)O4)C3)cc2c1 (mixture of isomers)
4. CCOCCCNC(=O)C1(C(F)(F)F)CC(c2ccc3ncc(Br)cc3c2)=NO1 (centres unmarked)
5. CC(C)NC(=O)C1(C)CC(c2ccc3ncc(-c4ccco4)cc3c2)=NO1 (racemic)
6. C#Cc1cnc2ccc(C3=NOC(OC)(C(=O)NC4CCC4)C3)cc2c1 (racemic)
7. COC1(C(=O)NC(C)C)CC(c2ccc3ncc(Br)cc3c2)=NO1 (centres unmarked)
8. C#Cc1cnc2ccc(C3=NOC(C)(C(=O)NCc4cn(CC)nc4C)C3)cc2c1 (centres unmarked)

1. 100
2. 98
3. 91
4. 86
5. 89
6. 71
7. 96
8. 97

====

# Type: physicochemical
# ASSAY SETUP: HPLC on reversed phase columns, method [a]: pH 2.7, 0.1% formic acid in water / acetonitrile, linear gradient 10% to 95% acetonitrile
Give log P for every item shown.

Please review the following examples before continuing.
Using known records, supply log P for CCCn1cc(CNC(=O)C2(C)CC(c3cc(C)c4ncc(Br)cc4c3)=NO2)c(C)n1 (centres unmarked) [compound 534]
3.29[a]

Using known records, supply log P for C#Cc1cnc2ccc(C3=NOC(C)(C(=O)NCC[Si](C)(C)C)C3)cc2c1 (centres unmarked) [compound 231]
3.7^[a]

Using known records, supply log P for C#Cc1cnc2ccc(C3=NOC(C)(C(=O)NC(c4cccc(C)c4)C(F)(F)F)C3)cc2c1 (centres unmarked) [compound 354]
3.92[a]

Could I get log P for every one of these entries?
1. C#Cc1cnc2ccc(C3=NOC(C(=O)NC(C)C)(C(F)F)C3)cc2c1 (centres unmarked) [compound 616]
2. CCSc1cnc2ccc(C3=NOC(C)(C(=O)NC(C)C)C3)cc2c1 (centres unmarked) [compound 277]
3. CC(NC(=O)C1(C)CC(c2ccc3ncc(Br)cc3c2)=NO1)C1CC1 (centres unmarked) [compound 332]

1: 2.73[a]; 2: 2.81[a]; 3: 3.17[a]

Could I get log P for every one of these entries?
1. C#Cc1cnc2c(Cl)cc(C3=NOC(OC)(C(=O)NCc4cn(CC)nc4C)C3)cc2c1 (centres unmarked) [compound 587]
2. C#Cc1cnc2c(C)cc(C3=NOC(OC)(C(=O)NC4CCC4)C3)cc2c1 (centres unmarked) [compound 612]

["2.53[a]", "3.15[a]"]

====

# Format: physicochemical
# ASSAY SETUP: HPLC on reversed phase columns, method [a]: pH 2.7, 0.1% formic acid in water / acetonitrile, linear gradient 10% to 95% acetonitrile
Give log P for every item shown.

Please review the following examples before continuing.
Using known records, supply log P for CC(C)CCC(C)NC(=O)C1(C)CC(c2ccc3ncc(Br)cc3c2)=NO1 (stereo not shown)
4.21[a]

Using known records, supply log P for C#Cc1cnc2ccc(C3=NOC(C)(C(=O)NC(C)C4CCOC4)C3)cc2c1 (stereo not shown)
2.18[a]

Using known records, supply log P for C#Cc1cnc2c(Cl)cc(C3=NOC(C)(C(=O)NCc4cn(CCC)nc4C)C3)cc2c1 (stereo not shown)
2.78[a]

Now look at this entry.
Using known records, supply log P for CCOCCCNC(=O)C1(C2CC2)CC(c2ccc3ncc(Br)cc3c2)=NO1 (stereo not shown)
3.21[a]

====

# Format: physicochemical
# ASSAY SETUP: HPLC on reversed phase columns, method [a]: pH 2.7, 0.1% formic acid in water and acetonitrile, linear gradient 10% to 95% acetonitrile
MEASUREMENT TYPE: log P

Please review the following examples before continuing.
Using known records, supply log P for CC(C)NC(=O)C1(C)CC(c2ccc3ncc(Br)c(Cl)c3c2)=NO1 (centres unmarked) [compound 736]
2.39[a]

Using known records, supply log P for COC1(C(=O)Nc2cccc(CON=C(c3ccccc3)c3noc(=O)n3C)n2)CC(c2ccc3ncc(Br)cc3c2)=NO1 (centres unmarked) [compound 711]
4.39[a]

Using known records, supply log P for C#CC1(NC(=O)C2(C)CC(c3ccc4ncc(Br)cc4c3)=NO2)CC1 (centres unmarked) [compound 718]
2.64[a]

Using known records, supply log P for CC1(C(=O)NCCC#N)CC(c2ccc3ncc(Br)cc3c2)=NO1 (centres unmarked) [compound 720]
2.15[a]

Using known records, supply log P for CC1(C(=O)N2CCOCC2)CC(c2ccc3ncc(Br)cc3c2)=NO1 (centres unmarked) [compound 771]
2.48[a]

Could I get log P for every one of these entries?
1. CC1(C(=O)NCc2ccnc(O)c2)CC(c2ccc3ncc(Br)cc3c2)=NO1 (centres unmarked) [compound 765]
2. CC1(C(=O)NCc2cccnc2O)CC(c2ccc3ncc(Br)cc3c2)=NO1 (racemic) [compound 817]
3. CC(C)(C)Oc1ncccc1CNC(=O)C1(C)CC(c2ccc3ncc(Br)cc3c2)=NO1 (racemic) [compound 819]

1. 1.72[a]
2. 1.88[a]
3. 4.46[a]

====

# Tested on: Septoria tritici
# ASSAY PROCEDURE: In vivo preventive test on Septoria tritici (leaf spot on wheat)
# ASSAY SETUP: 500 ppm; wheat plants sprayed 24 hours before contamination; grading 21 to 28 days after contamination vs control plants
Give % of efficacy (protection) for every item shown.
Number first, unit second.

Please review the following examples before continuing.
Given C#Cc1cnc2ccc(C3=NOC(C)(C(=O)NCC4CCCO4)C3)cc2c1 (centres unmarked) [compound 132] , report its % of efficacy (protection) on Septoria tritici.
100%

Given C#Cc1cnc2ccc(C3=NOC(CC)(C(=O)NCC4COC(C)(C)O4)C3)cc2c1 (mixture of isomers) [compound 441] , report its % of efficacy (protection) on Septoria tritici.
100%

Could I get % of efficacy (protection) for every one of these entries?
1. Cc1cnc(CNC(=O)C2(C(C)O)CC(c3ccc4ncc(Br)cc4c3)=NO2)cn1 (mixture of isomers) [compound 562]
2. C#Cc1cnc2c(C)cc(C3=NOC(C)(C(=O)NCc4cnc(C)cn4)C3)cc2c1 (centres unmarked) [compound 535]
3. CC(NC(=O)C1(C)CC(c2ccc3ncc(Br)cc3c2)=NO1)c1ccccc1Cl (centres unmarked) [compound 294]
4. CCn1cc(CNC(=O)C2(C)CC(c3ccc4nc(OC)c(I)cc4c3)=NO2)c(C)n1 (centres unmarked) [compound 472]
5. CC(C)NC(=O)C1(C)CC(c2ccc3ncc(Br)cc3c2)=NO1 (centres unmarked) [compound 31]

["86%", "100%", "70%", "75%", "100%"]
